Experimental target: DCN2 (DCUND2) protein PONY domain (Homo sapiens (Human), UniProt Q6PH85)
Sequence (Q6PH85 60-248): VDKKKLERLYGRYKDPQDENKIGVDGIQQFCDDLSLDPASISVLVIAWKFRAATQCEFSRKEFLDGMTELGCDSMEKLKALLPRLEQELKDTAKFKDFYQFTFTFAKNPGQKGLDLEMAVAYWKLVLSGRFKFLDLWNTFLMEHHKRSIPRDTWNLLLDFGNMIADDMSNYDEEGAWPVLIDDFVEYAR
Test description: Measurement of Kinact/KI in the DCN2 TR-FRET Assay
Condition details: time-dependent IC50 over 24 hrs
Task for the reader: assign each of the following compounds its reported Ki.
Answer in µM, number only, no unit symbol.

Recorded Ki for CCN1C(=O)[C@@H](NC(=O)c2cccc(C(F)(F)F)c2)[C@@H](c2ccc(F)cc2)c2c(C(=O)N3CCC[C@H]3C#N)nn(C3CCOCC3)c21 [Compound I-350] on DCN2 (DCUND2) protein PONY domain (Homo sapiens (Human), UniProt Q6PH85) was 0.0929

Kindly note: DCN2 (DCUND2) protein PONY domain (Homo sapiens (Human), UniProt Q6PH85), CCN1C(=O)[C@@H](NC(=O)c2cccc(C(F)(F)F)c2)[C@@H](c2ccc(F)cc2)c2c(C(=O)N(C)[C@@H](C#N)CCN(C)C)nn(C3CCOCC3)c21 [Compound I-369] , Ki value reported: 0.002

Value (Ki, DCN2 (DCUND2) protein PONY domain (Homo sapiens (Human), UniProt Q6PH85)) for record CCN1C(=O)[C@@H](NC(=O)c2cccc(C(F)(F)F)c2)[C@@H](c2ccc(F)cc2)c2c(C(=O)N3CCNC[C@H]3C#N)nn(C3CCOCC3)c21 [Compound I-363] = 0.0174

Log: DCN2 (DCUND2) protein PONY domain (Homo sapiens (Human), UniProt Q6PH85), compound CCN1C(=O)[C@@H](NC(=O)c2cccc(C(F)(F)F)c2)[C@@H](C2CC2)c2c(C(=O)N3C[C@H](F)C[C@H]3C#N)nn(C3CCOCC3)c21 [Compound I-372] , Ki = 0.229

Short answer on DCN2 (DCUND2) protein PONY domain (Homo sapiens (Human), UniProt Q6PH85) for C=C(CN1CCOCC1)C(=O)NC[C@@H](NC(=O)[C@H](Cc1nc2ccc(C(C)C)cc2s1)NC(=O)CC)C1CCCCC1 [DI-1548, reference compound] , Ki: 0.000355

Bench note, DCN2 (DCUND2) protein PONY domain (Homo sapiens (Human), UniProt Q6PH85): entry CCN1C(=O)[C@@H](NC(=O)c2cccc(C(F)(F)F)c2)[C@@H](C2CC2)c2c(C(=O)N3C[C@H](NC)C[C@H]3C#N)nn(C3CCOCC3)c21 [Compound I-425] , its Ki = 0.0216

Result for CCN1C(=O)[C@@H](NC(=O)c2cccc(C(F)(F)F)c2)[C@@H](C)c2c(C(=O)N3[C@H](C#N)C[C@H]4C[C@H]43)nn(C3CCOCC3)c21 [Compound I-387] , tested on DCN2 (DCUND2) protein PONY domain (Homo sapiens (Human), UniProt Q6PH85), Ki: 0.157

For the compound CCN1C(=O)[C@@H](NC(=O)c2cccc(C(F)(F)F)c2)[C@@H](c2ccc(F)cc2)c2c([C@@H](C)NC#N)nn(-c3ccccc3)c21 [Compound I-73] , the measured Ki on DCN2 (DCUND2) protein PONY domain (Homo sapiens (Human), UniProt Q6PH85) was 0.0464

###

System: Cullin-3 (CUL3) neddylation
Test description: AlphaLISA assay for Cullin-3 (CUL3) neddylation in TF 1 cells
Type: cell-based
Condition details: Homo sapiens, TF-1, 3 h, 3 hours treatment
Quantity measured: IC50

Reported IC50 for CCN1C(=O)[C@@H](NC(=O)c2cccc(C(F)(F)F)c2)[C@@H](c2ccc(F)cc2)c2c(C(=O)N(CC#N)CCN3CCOCC3)nn(-c3ccccc3)c21 (racemic) [Compound I-320] was ≤ 100 nM

For reference, reported IC50 for CCN1C(=O)[C@@H](NC(=O)c2cccc3c2CCCO3)[C@@H](C2CC2)c2c(C(=O)N3[C@H](C#N)C[C@H]4C[C@H]43)nn(C3CCOCC3)c21 [Compound I-633] stands at 100 to 1000 nM

The compound identified as CCN1C(=O)[C@@H](NC(=O)c2cccc(C(F)(F)F)c2)[C@@H](c2ccc(F)cc2)c2c(CNC(=O)C3(C#N)CC3)nn(-c3ccccc3)c21 (racemic) [Compound I-37] registered its IC50 at 100 to 1000 nM

Item: CCN1C(=O)[C@@H](NC(=O)c2nccc(C(F)(F)F)n2)[C@H](c2ccc(F)cc2)c2c(CNC(=O)CC#N)nn(-c3ccccc3)c21 [Compound I-452] | IC50: > 1000 nM

Item: CCN1C(=O)[C@@H](NC(=O)c2cccc(C(F)(F)F)c2)[C@@H](c2ccc(F)cc2)c2c(C(=O)N(CC#N)CCN(C)C)nn(-c3ccccc3)c21 (racemic) [Compound I-448] | IC50: > 1000 nM

Notebook: C=C(CN1CCN(C2COC2)CC1)C(=O)NCc1nn(-c2ccccc2)c2c1[C@H](c1ccc(F)cc1)[C@H](NC(=O)c1cccc(C(F)(F)F)c1)C(=O)N2CC (racemic) [Compound I-57] , IC50 read as ≤ 100 nM

According to the records, this compound CCN1C(=O)[C@@H](NC(=O)c2cccc(C(F)(F)F)c2)[C@@H](C2CC2)c2c(C(=O)N3[C@H](C#N)C[C@H]4C[C@H]43)nn(C(C)(C)C)c21 (mixture of isomers) [Compound I-517] displays IC50 of 100 to 1000 nM

Notebook: CCN1C(=O)[C@H](NC(=O)c2cccc(C(F)(F)F)c2)[C@H](c2ccc(F)cc2)c2c(C(=O)N3CCC[C@H]3C#N)nn(-c3cccc(OCCCN4CC5(COC5)C4)c3)c21 (stereo in doubt) [Compound I-293] , IC50 read as ≤ 100 nM

Entry C=C(CN1CC2CC(C1)O2)C(=O)NCc1nn(-c2ccccc2)c2c1[C@H](c1ccc(F)cc1)[C@H](NC(=O)c1cccc(C(F)(F)F)c1)C(=O)N2CC [Compound I-56] , IC50 reported as ≤ 100 nM

Reported IC50 of CCN1C(=O)[C@@H](NC(=O)c2cccc(C(F)(F)F)c2)[C@@H](C2CC2)c2c(C(=O)N(C)[C@H](C)C#N)nn(C3CCOCC3)c21 [Compound I-422] : ≤ 100 nM
